These data points were gathered from paper PMC10786891.

Kd by entry:
MEASUREMENT_TARGET: T1, EsCas13d, nuclease-dead (Eubacterium siraeum, UniProt B0MS50, R295A;H300A;R849A;H854A)
T1 sequence: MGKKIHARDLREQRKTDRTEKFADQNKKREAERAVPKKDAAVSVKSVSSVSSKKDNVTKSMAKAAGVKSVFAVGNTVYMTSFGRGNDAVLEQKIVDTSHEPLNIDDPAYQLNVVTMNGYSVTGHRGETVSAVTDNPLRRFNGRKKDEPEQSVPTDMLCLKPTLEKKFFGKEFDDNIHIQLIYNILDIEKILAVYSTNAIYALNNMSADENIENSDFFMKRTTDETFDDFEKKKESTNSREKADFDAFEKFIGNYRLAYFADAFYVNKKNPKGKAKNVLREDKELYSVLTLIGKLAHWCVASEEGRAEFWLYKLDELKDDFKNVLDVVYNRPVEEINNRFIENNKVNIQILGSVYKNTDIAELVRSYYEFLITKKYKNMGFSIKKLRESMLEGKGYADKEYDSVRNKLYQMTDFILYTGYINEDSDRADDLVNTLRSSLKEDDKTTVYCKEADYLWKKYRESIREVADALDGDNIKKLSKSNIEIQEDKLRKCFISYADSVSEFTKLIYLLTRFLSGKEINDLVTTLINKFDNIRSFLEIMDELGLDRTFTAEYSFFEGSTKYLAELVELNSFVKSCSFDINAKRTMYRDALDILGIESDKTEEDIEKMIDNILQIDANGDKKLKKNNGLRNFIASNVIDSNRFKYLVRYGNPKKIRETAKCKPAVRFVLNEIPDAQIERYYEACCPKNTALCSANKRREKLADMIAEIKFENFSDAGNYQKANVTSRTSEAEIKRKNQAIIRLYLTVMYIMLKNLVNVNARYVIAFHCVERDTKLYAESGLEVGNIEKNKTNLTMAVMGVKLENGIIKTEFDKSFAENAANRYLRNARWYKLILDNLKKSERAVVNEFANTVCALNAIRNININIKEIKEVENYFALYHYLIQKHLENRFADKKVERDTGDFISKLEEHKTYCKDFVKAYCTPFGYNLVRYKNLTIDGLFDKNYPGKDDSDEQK
ASSAY: crRNA (strand 1, pre-loaded); Mg2+; 40 mM Tris-HCl pH 7.5, 150 mM NaCl, 6 mM MgCl2, 1 mM DTT, 0.1% Tween-20, 0.2 mg/ml BSA; 25 C; 10 min per concentration, then washed
SETUP_CONDITIONS: tags: His6-TwinStrep-SUMO cleaved; N-terminal SNAP kept (SNAP-Surface 488); label: 3' end held by stalled T7 RNA polymerase
Answer with a number only, understood to be in µM.

Some binders with recorded Kd:
[[record]]
binder = "target 1 insU 3' of 15,insU 3' of 9 (mixed) RNA 1: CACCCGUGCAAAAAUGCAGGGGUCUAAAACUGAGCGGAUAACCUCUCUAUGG RNA 2: GGGAAUGGAUCCACAUCUACGAAUUCGUACCAUAGAGUAGGUUAUUCCGCUCACCGAGAUCGGAAGAGCACACGU"
quantity_measured = "Kd"
display_unit = "µM"
observed = 0.059

[[record]]
binder = "target 1 MT 5'PFS UUG 3'PFS CUA (mixed) RNA 1: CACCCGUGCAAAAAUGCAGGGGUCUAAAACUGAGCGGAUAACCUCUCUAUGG RNA 2: GGGAAUGGAUCCACAUCUACGAAUUCUUGCCAUAGAGAGGUUAUCCGCUCACUAAGAUCGGAAGAGCACACGU"
quantity_measured = "Kd"
display_unit = "µM"
observed = 0.0455

[[record]]
binder = "target 1 insG 3' of 20,insC 3' of 15 (mixed) RNA 1: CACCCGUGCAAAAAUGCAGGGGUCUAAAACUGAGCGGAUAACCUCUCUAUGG RNA 2: GGGAAUGGAUCCACAUCUACGAAUUCGUACCAGUAGAGCAGGUUAUCCGCUCACCGAGAUCGGAAGAGCACACGU"
quantity_measured = "Kd"
display_unit = "µM"
observed = 0.089


Switching to the query record.
If you can, please state the reported Kd value of target 1 C6U,G12A (mixed) RNA 1: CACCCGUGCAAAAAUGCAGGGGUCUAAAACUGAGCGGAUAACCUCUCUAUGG RNA 2: GGGAAUGGAUCCACAUCUACGAAUUCGUACCAUAGAGAGAUUAUCUGCUCACCGAGAUCGGAAGAGCACACGU . 0.0111
